Data provenance is PubChem BioAssay (NCI).

Listing of entries alongside the reported TGI.
Test system: SK-MEL-28 melanoma
Assay: NCI tumour cell line growth inhibition, 48 h
*1 amine or outer side, *2 acyl side, *3 side chain or, on linkers, in order; H or OH if unused. Where a SMILES comes first, the peptide text is derived from it. Bridges are numbered along the chain shown (N, C = ends). Roman numbers before positions name the chains, in order. [ ]: non-standard residue; d: D form. Actinocin(9to1) = Cc1c2oc3c(C)ccc(C(=O)[*:1])c3nc-2c(C(=O)[*:2])c(N)c1=O; NMeV = CN[CH](C(=O)O)C(C)C; Sar = CNCC(=O)O
measuredProperty: TGI

>>> datavalue("CCCCCCc1cc2cc(-c3cn4ccsc4n3)c(=O)oc2cc1O")
"> 35.9 µM"
>>> datavalue("NC(=S)N/N=C\\c1nccc2c(C(F)(F)F)cccc12")
"12.7 µM"
>>> datavalue("CC(C)=C[C@H]1C[C@H](C)[C@H]2CC[C@H](C)c3c2c1c(C)c1ncoc31")
"37 µM"
>>> datavalue("CN(C)CC1CCC/C1=N/OC(=O)c1ccccc1 (stereo not given)")
"> 100 µM"
>>> datavalue("CC#Cc1ccc(-c2ccccc2)s1")
"> 100 µM"
>>> datavalue("O=C(Nc1c(O)[nH]c(=S)[nH]c1=O)c1ccccc1")
"> 100 µM"
>>> datavalue("Cc1c2oc3c(C)ccc(C(=O)NC4C(=O)NC(C(C)C)C(=O)N5CCCC5C(=O)N(C)CC(=O)N(C)C(C(C)C)C(=O)OC4C)c3nc-2c(C(=O)NC2C(=O)NC(C(C)C)C(=O)N3CCCC3C(=O)N(C)CC(=O)N(C)C(C(C)C)C(=O)OC2C)c(N)c1=O (stereo not given) (I: TVP[Sar][NMeV] / II: TVP[Sar][NMeV]; ester I:1-I:C, II:1-II:C; linker I:N-II:N via Actinocin(9to1); configuration not given here)")
"0.0125 µM"
>>> datavalue("COC(=O)c1cccc(C)c1C1CN=NC12Cc1cc(C)cc(C)c1C2=O (stereo not given)")
"> 100 µM"
>>> datavalue("O=C1NC2(CCN(CCc3ccccc3)CC2)Oc2ccccc21")
"> 100 µM"
>>> datavalue("Cc1ccc(S(=O)(=O)N2CCC2c2ccccc2)cc1 (stereo not given)")
"> 100 µM"
>>> datavalue("N=c1oc2ccccc2cc1C(=O)NC12CC3CC(CC(C3)C1)C2")
"> 100 µM"
>>> datavalue("O=C1c2ccccc2-n2nnnc2C2CSCN12 (stereo not given)")
"> 100 µM"
>>> datavalue("NC(=S)N/N=C1\\c2cc(Cl)ccc2-c2c1cc(Cl)cc2[N+](=O)[O-]")
"> 100 µM"
>>> datavalue("O=C1/C(=C\\c2ccc(Cl)cc2Cl)Sc2scc(-c3ccc(O)c(O)c3)[n+]21")
"31.7 µM"
>>> datavalue("COc1ccc2oc3c(C)cc4c(OC)nnc(OC)c4c3c2c1")
"> 100 µM"
>>> datavalue("CON(C)C(=O)C(C)N(Cc1ccccc1)Cc1ccccc1 (stereo not given)")
"> 100 µM"
>>> datavalue("C[C@@]1(O)CC[C@]2(C)C3CCCC3[C@H]12 (stereo not given in full)")
"> 100 µM"
>>> datavalue("CCOC(=O)/C(C#N)=C/c1coc2cc(C)cc(C)c2c1=O")
"> 100 µM"
>>> datavalue("CC(=O)OCc1ccc2c(c1)C(O)NC(=O)O2 (stereo not given)")
"> 100 µM"
>>> datavalue("COCCOCOC(CCCCO)c1cc(C)c(O[Si](C)(C)C(C)(C)C)c(C)c1 (stereo not given)")
"25.2 µM"
